The measured values listed here are drawn from patent US9174998B2.

In this section we review reported Test Example 2 residual ratio of the test substance values for a set of compounds.
- assayText: Evaluation of metabolic stability
- Format: in vitro ADME, human
- conditionLabel: 0.2 mg/mL HLM, 0.1 μM test substance, 15 minutes at 37° C., with vs without NADPH production
// note: answer is a bare numeric in %

Here is how some compounds turned out for Test Example 2 residual ratio of the test substance.
## Task # input compound: C=CCN1CC(=O)N2[C@@H](Cc3c(F)cc(O)cc3F)C(=O)N(Cc3cccc(N4CC(N5CCN(CC)CC5)C4)n3)C[C@@H]2N1C(=O)NCc1ccccc1 ; wanted: its Test Example 2 residual ratio of the test substance
## Result 56

## Task Follow-up entry: C=CCN1CC(=O)N2[C@@H](Cc3ccc(O)cc3F)C(=O)N(Cc3ccc(F)c(N4CC(N5C[C@@H]6C[C@H]5CN6C(C)C)C4)n3)C[C@@H]2N1C(=O)NCc1ccccc1 [Reference Example 4]
## Result 34

Proceed to the following item.
## Task # input compound: C=CCN1CC(=O)N2[C@@H](Cc3c(F)cc(O)cc3F)C(=O)N(Cc3cccc(N4CC(N5CCN(C)C[C@@H]5C)C4)n3)C[C@@H]2N1C(=O)NCc1ccccc1 ; wanted: its Test Example 2 residual ratio of the test substance
## Result 60

----------
- assayText: Evaluation of solubility (DMSO stock into PBS, HPLC-UV)
- Format: physicochemical
- conditionLabel: Dulbecco's phosphate-buffered saline pH 7, room temperature, about 15 minutes shaking; values greater than 200 μM regarded as 200 μM; read-out: Test Example 3 solubility
In this section we review reported solubility values for a set of molecules.
Express the reported value numerically, then name its unit.

## Task # input molecule: C=CCN1CC(=O)N2[C@@H](Cc3ccc(O)cc3)C(=O)N(Cc3cccc(N4CC(N5CCN(CC)[C@@H](C)C5)C4)n3)C[C@@H]2N1C(=O)NCc1ccccc1 ; wanted: its solubility
## Result 200 µM

New cases:
## Task # input molecule: C=CCN1CC(=O)N2[C@@H](Cc3ccc(O)cc3F)C(=O)N(Cc3cccc(N4CC(N5CCN(C)CC5)C4)n3)C[C@@H]2N1C(=O)NCc1ccccc1 ; wanted: its solubility
## Result 200 µM

## Task Follow-up entry: C=CCN1CC(=O)N2[C@@H](Cc3ccc(O)cc3F)C(=O)N(Cc3cccc(N4CC(N5CCN(C)[C@H](C)C5)C4)n3)C[C@@H]2N1C(=O)NCc1ccccc1
## Result 200 µM

----------
- assayText: Evaluation of solubility (Examples 25 and 26), visual judgment
- Assay type: physicochemical
- conditionLabel: aqueous buffer, thermodynamic from solid; Dulbecco's phosphate-buffered saline pH 7; about 10 mg sample, test solution added in 0.1 mL portions until dissolved
attributeMeasured: solubility

## Task # input compound: C=CCN1CC(=O)N2C(CN(Cc3cccc(N4CC(N5CCN(CC)CC5)C4)n3)C(=O)[C@@H]2Cc2ccc(OP(=O)(O)O)cc2)N1C(=O)NCc1ccccc1 (some centres unmarked) ; wanted: its solubility
## Result 42 to 62 mM

## Task Follow-up entry: C=CCN1CC(=O)N2[C@@H](Cc3ccc(OP(=O)(O)O)cc3F)C(=O)N(Cc3cccc(N4CC(N5CCN(CC)CC5)C4)n3)C[C@@H]2N1C(=O)NCc1ccccc1
## Result ≥ 124 mM

----------
In this section we review reported Test Example 2 residual ratio of the test substance values for a set of compounds.
- assayText: Evaluation of metabolic stability
- Assay type: in vitro ADME, human
- conditionLabel: 0.2 mg/mL HLM, 0.1 μM test substance, 15 minutes at 37° C., with vs without NADPH production
// note: answer is a bare numeric in %

## Task # input compound: C=CCN1CC(=O)N2[C@@H](Cc3ccc(O)cc3)C(=O)N(Cc3ccc(F)c(N4CC(N5CCN(CC)CC5)C4)n3)C[C@@H]2N1C(=O)NCc1ccccc1 ; wanted: its Test Example 2 residual ratio of the test substance
## Result 29

## Task Follow-up entry: C=CCN1CC(=O)N2[C@@H](Cc3ccc(O)cc3F)C(=O)N(Cc3cccc(N4CC(N5CCN(C)CC5)C4)n3)C[C@@H]2N1C(=O)NCc1ccccc1
## Result 54

## Task Follow-up entry: C=CCN1CC(=O)N2[C@@H](Cc3ccc(O)cc3F)C(=O)N(Cc3cccc(N4CC(N5CCN(C(C)C)CC5)C4)n3)C[C@@H]2N1C(=O)NCc1ccccc1
## Result 26

## Task Follow-up entry: C=CCN1CC(=O)N2[C@@H](Cc3c(F)cc(O)cc3F)C(=O)N(Cc3cccc(N4CC(N5CCN(C)[C@@H](C)C5)C4)n3)C[C@@H]2N1C(=O)NCc1ccccc1
## Result 63

## Task Follow-up entry: C=CCN1CC(=O)N2[C@@H](Cc3ccc(O)cc3)C(=O)N(Cc3cccc(N4CC(N5CCN(C)[C@H](C)C5)C4)n3)C[C@@H]2N1C(=O)NCc1ccccc1
## Result 55

## Task Follow-up entry: C=CCN1CC(=O)N2[C@@H](Cc3c(F)cc(O)cc3F)C(=O)N(Cc3cccc(N4CC(N5CCN(CC)[C@H](C)C5)C4)n3)C[C@@H]2N1C(=O)NCc1ccccc1
## Result 38

New cases:
## Task # input compound: C=CCN1CC(=O)N2[C@@H](Cc3c(F)cc(O)cc3F)C(=O)N(Cc3cccc(N4CC(N5CCN(C)CC5)C4)n3)C[C@@H]2N1C(=O)NCc1ccccc1 ; wanted: its Test Example 2 residual ratio of the test substance
## Result 69

## Task Follow-up entry: C=CCN1CC(=O)N2[C@@H](Cc3ccc(O)cc3)C(=O)N(Cc3cccc(N4CC(N5CCN(CC)[C@@H](C)C5)C4)n3)C[C@@H]2N1C(=O)NCc1ccccc1
## Result 37

## Task Follow-up entry: C=CCN1CC(=O)N2[C@@H](Cc3ccc(O)cc3F)C(=O)N(Cc3cccc(N4CC(N5CCN(C)[C@@H](C)C5)C4)n3)C[C@@H]2N1C(=O)NCc1ccccc1
## Result 44

## Task Follow-up entry: C=CCN1CC(=O)N2[C@@H](Cc3ccc(O)cc3)C(=O)N(Cc3cccc(N4CC(N5CCN(C(C)C)CC5)C4)n3)C[C@@H]2N1C(=O)NCc1ccccc1
## Result 34

## Task Follow-up entry: C=CCN1CC(=O)N2[C@@H](Cc3ccc(O)cc3)C(=O)N(Cc3cccc(N4CC(N5CCN(C)CC5)C4)n3)C[C@@H]2N1C(=O)NCc1ccccc1
## Result 63
